tested on: SF-295; test: NCI tumour cell line growth inhibition, 48 h
Active and inactive are the calls of the source. Rule as the data show it: active = GI50 up to about 1.1 µM and inactive = higher.
Outcomes: active, inactive

1. Oc1ccc(CNCc2ccccc2)c2cccnc12	active
2. Cc1nc(N)c(N2CCN(C(=O)O)CC2)c(O)n1	inactive
3. c1ccc2c(c1)ccc1nc3ccccn3c12	inactive
4. COc1cc2c[n+](C)c3c4cc(OC)c(OC)cc4c(OC)cc3c2cc1OC	inactive
5. O=c1c(Cc2ccccc2)c(-c2ccccc2)[nH]n1C1=NCCN1	inactive
6. COc1ccc(/C(=N/O)C(c2ccc(OC)cc2)C2C(=O)Oc3ccccc32)cc1 (centres undefined)	inactive
7. O=C(CCC1OCCO1)Nc1cc(NCc2ccccc2)ccc1OCc1ccccc1	inactive
8. Cc1nc(N)nc(N)c1N1CCN(Cc2ccccc2)CC1	inactive
9. O=C(Cc1ccccc1)NN1C(=O)C(Cl)C1c1ccccc1O (centres undefined)	inactive
10. c1ccc(-c2ccc(/N=N/N3CCCC3)cc2)cc1	inactive
11. CCCCCCCCCCCCCCCCCCNc1ccn(C2OC(COP(=O)(O)OCC3OC(n4cc(C)c(=O)[nH]c4=O)CC3F)C(O)C2O)c(=O)n1 (centres undefined)	inactive
12. COc1cc2c(cc1OC)C(N)CC2=O (centres undefined)	inactive
13. O=C1c2c(O)cccc2C(C(=O)CCCCC(=O)C2c3cccc(O)c3C(=O)c3c(O)cccc32)c2cccc(O)c21	active
14. COc1ccc(C2C(C(=O)O)=C(CO)Oc3cc4c(cc32)OCO4)c(OC)c1 (centres undefined)	inactive

meta.source: ChEMBL document CHEMBL1201862
